The following compounds have recorded IC50 on Plasmin (Homo sapiens, UniProt P00747).
Sequence (P00747 581-810 limits assumed, species assumed): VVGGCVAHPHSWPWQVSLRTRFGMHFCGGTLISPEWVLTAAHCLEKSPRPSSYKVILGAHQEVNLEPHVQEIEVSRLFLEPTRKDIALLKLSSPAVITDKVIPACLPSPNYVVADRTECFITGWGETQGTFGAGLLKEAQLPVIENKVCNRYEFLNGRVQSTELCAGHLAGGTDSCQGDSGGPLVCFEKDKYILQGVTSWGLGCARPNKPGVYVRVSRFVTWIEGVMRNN
Sequence (P00747 97-580 partner limits assumed, species assumed): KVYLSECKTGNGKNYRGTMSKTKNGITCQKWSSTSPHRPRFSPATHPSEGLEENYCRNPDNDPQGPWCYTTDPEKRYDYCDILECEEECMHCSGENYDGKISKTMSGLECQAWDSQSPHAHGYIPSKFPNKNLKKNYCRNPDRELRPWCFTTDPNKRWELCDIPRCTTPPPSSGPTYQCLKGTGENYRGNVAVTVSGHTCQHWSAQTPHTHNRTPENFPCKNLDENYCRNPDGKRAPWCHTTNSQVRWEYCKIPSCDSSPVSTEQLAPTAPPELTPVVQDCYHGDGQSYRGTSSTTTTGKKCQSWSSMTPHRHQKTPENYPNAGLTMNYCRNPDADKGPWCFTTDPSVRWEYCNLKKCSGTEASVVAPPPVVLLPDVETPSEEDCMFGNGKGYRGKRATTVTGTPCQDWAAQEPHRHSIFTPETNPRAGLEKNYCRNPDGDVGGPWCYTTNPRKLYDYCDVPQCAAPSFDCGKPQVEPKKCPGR
One number for each entry, in nM.

| Smiles Entry | Measured On | IC50, nM |
| --- | --- | --- |
| N=C(N)c1ccc2cc(OC(=O)c3ccc(CN4CCN(Cc5ccccc5)CC4)o3)ccc2c1 | Plasmin (Homo sapiens, UniProt P00747) | 600 |
| CN(C)CC(=O)NCc1ccc(C(=O)Oc2ccc3cc(C(=N)N)ccc3c2)o1 | Plasmin (Homo sapiens, UniProt P00747) | 2000 |

Switching to the query record.
What IC50 value was documented for this compound, N=C(N)c1ccc2cc(OC(=O)c3ccc(CN)s3)ccc2c1 ?
400
